- Test system: genotype 1b NS3/4a protease inhibitor resistant variant D168A transient HCV replicon in Huh-7-derived cells
- PROTOCOL_TEXT: Transient-transfected HCV replicon EC50, genotype 1b D168A
- Format: cell-based, hepatitis C virus
- CONDITION_SUMMARY: Hepatitis C virus, 72 h, read-out: EC50 1B D168A, transient-transfected replicon genotype 1b D168A resistant variant, 72 h
READOUT_LABEL: log10 of EC50 (log10 of the value in nM)

CHEMICAL_STRING	log10 of EC50
CC[C@@H]1[C@@H]2CN(C(=O)[C@H](C3CCCC3)NC(=O)O[C@@H]3C[C@H]3CCCCCc3nc4ccc(OC)cc4nc3O2)[C@@H]1C(=O)N[C@]1(C(=O)NS(=O)(=O)C2CC2)C[C@H]1C(F)F	2.26
COc1ccc2nc3c(nc2c1)O[C@H]1CN(C(=O)[C@H](C(C)(C)C)NC(=O)O[C@H]2CC4CC(C4)[C@@H]2CCCCC3)[C@H](C(=O)N[C@]2(C(=O)NS(=O)(=O)C3CC3)C[C@H]2C(F)F)[C@@H]1C	2.84
CC[C@@H]1[C@@H]2CN(C(=O)[C@H](C(C)(C)C)NC(=O)O[C@@H]3C[C@@H]4C[C@@H]4[C@H]3CCCCCc3nc4ccc(OC)cc4nc3O2)[C@@H]1C(=O)N[C@]1(C(=O)NS(=O)(=O)C2CC2)C[C@H]1C(F)F	0.86
CC[C@@H]1[C@@H]2CN(C(=O)[C@H](C(C)(C)C)NC(=O)O[C@@H]3CCCC[C@H]3CCCCCc3nc4ccc(OC)cc4nc3O2)[C@@H]1C(=O)N[C@]1(C(=O)NS(=O)(=O)C2CC2)C[C@H]1C(F)F	2.60
COc1ccc2nc3c(nc2c1)O[C@H]1CN(C(=O)[C@H](C(C)(C)C)NC(=O)O[C@@H]2C[C@@H]4C[C@@H]4[C@H]2CCCCC3)[C@H](C(=O)N[C@]2(C(=O)NS(=O)(=O)C3(C)CC3)C[C@H]2CC(F)F)[C@@H]1C	1.36
C=C[C@@H]1C[C@]1(NC(=O)[C@@H]1[C@H](CC)[C@@H]2CN1C(=O)[C@H](C(C)(C)C)NC(=O)O[C@@H]1C[C@H]1CCCCCc1nc3ccc(OC)cc3nc1O2)C(=O)NS(=O)(=O)C1CC1	0.96
C[C@@H]1[C@@H]2CN(C(=O)[C@H](C(C)(C)C)NC(=O)O[C@@H]3C[C@@H]4C[C@@H]4[C@H]3CCCCCc3nc4ccc(F)cc4nc3O2)[C@@H]1C(=O)N[C@]1(C(=O)NS(=O)(=O)C2(C)CC2)C[C@H]1C(F)F	1.00
CC[C@@H]1[C@@H]2CN(C(=O)[C@H](C(C)(C)C)NC(=O)O[C@@H]3CCC[C@H]3CCCCCc3nc4ccc(OC)cc4nc3O2)[C@@H]1C(=O)N[C@]1(C(=O)NS(=O)(=O)C2(C)CC2)C[C@H]1C(F)F	2.33
CC[C@@H]1C[C@]1(NC(=O)[C@@H]1[C@H](C)[C@@H]2CN1C(=O)[C@H](C(C)(C)C)NC(=O)O[C@@H]1C[C@H]1CCCCCc1nc3ccc(OC)cc3nc1O2)C(=O)NS(=O)(=O)C1(C)CC1	1.85
